# MEASURED_TARGET: DNA polymerase eta (Homo sapiens) (UniProt Q9Y253)
# Sequence (Q9Y253 whole entry, looked up): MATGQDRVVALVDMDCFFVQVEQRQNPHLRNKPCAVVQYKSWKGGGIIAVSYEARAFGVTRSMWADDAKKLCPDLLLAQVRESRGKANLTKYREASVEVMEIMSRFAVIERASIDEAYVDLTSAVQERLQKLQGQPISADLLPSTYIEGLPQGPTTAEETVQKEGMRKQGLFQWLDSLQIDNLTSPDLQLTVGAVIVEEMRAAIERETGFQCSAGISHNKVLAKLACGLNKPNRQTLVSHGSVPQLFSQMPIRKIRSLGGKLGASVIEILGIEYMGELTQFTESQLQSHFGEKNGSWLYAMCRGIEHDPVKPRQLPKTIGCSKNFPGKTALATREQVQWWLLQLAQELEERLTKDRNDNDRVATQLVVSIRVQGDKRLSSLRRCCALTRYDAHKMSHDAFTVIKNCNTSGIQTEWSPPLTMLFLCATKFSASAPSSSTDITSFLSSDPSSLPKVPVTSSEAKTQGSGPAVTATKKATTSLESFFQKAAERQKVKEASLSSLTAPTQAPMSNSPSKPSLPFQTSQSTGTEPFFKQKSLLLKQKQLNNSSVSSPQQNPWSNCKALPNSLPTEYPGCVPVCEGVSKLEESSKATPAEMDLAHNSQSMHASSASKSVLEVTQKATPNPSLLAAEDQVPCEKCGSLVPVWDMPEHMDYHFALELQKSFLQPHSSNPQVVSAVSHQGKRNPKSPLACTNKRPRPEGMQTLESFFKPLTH
# PROTOCOL_TEXT: qHTS for Inhibitors of Polymerase Eta
# EXPERIMENTAL_SETUP: recombinant Pol eta, fluorescent DNA replication assay; series mostly up to 114 µM
The whole screen tested about 390,000 compounds, of which about 4,700 (1.2%) were called active. Inconclusive results (about 4%) are left out. Calls come from the whole dose curve; as a rule, active = well fitted inhibition curve with a large enough effect; inconclusive = small, poorly fitted or top-dose-only effect, or another doubt; inactive = no such curve, though single readings can be large or run the other way. Many of the other results were omitted from the sample, so actives are more common in it than they were.
Outcome codes: active, inactive

* CC1CCN(c2nc3ccc(C(=O)N4CCN(c5ccccc5)CC4)cc3s2)CC1 | inactive
* COc1ccc(C(=O)Nc2cccc(/C=C(/CCC(=O)O)c3nc4ccccc4s3)c2)cc1 | active
* Cc1ccccc1C(=O)N1CCC(C(=O)Oc2ccc(C#N)cc2)CC1 | inactive
* O=C(c1cc2c(s1)CCC2)N1CCN(c2ccccc2)CC1 | active
* Cn1c(SCC(=O)N2CCCc3ccccc32)ncc(C(=O)Nc2ccc(F)cc2)c1=O | inactive
* Cc1csc2nc(COC(=O)c3ccc(NC(=O)COc4ccccc4F)cc3)cc(=O)n12 | inactive
* CC(C)(CNC(=O)c1ccc(Cl)c(S(=O)(=O)N2CCc3ccccc3C2)c1)N1CCOCC1 | inactive
* Clc1ccc(CSc2nncn3c2cc2occc23)cc1 | inactive
* COc1ccc(OC)c(NC(=O)N[C@H](Cc2ccccc2)C(=O)NN)c1 | inactive
* N#Cc1ccc(C2=CC(=O)C[C@H](c3ccc(Cl)cc3)C2)cc1 | inactive
* O=C(Nc1ccc(F)cc1)c1cccnc1N1CCOCC1 | inactive
* O=c1n(Cc2cccc(C(F)(F)F)c2)c2ccccc2c2nc(-c3ccccc3)nn12 | inactive
* CCCCSc1ncnc2c1sc1nc(N3CCOCC3)c3c(c12)CCCC3 | inactive
* COc1cc(C)ccc1OCCSc1nc2ccc(NC(=O)c3ccc(C)cc3)cc2s1 | inactive
* Cc1ccc(Cn2cc(CCC(=O)NCc3ccc(OC(C)C)cc3)c3ccccc32)cc1 | inactive
* COc1ccc(CC(=O)Nc2ccc(-c3nc4ccccc4s3)c(C)c2)cc1 | inactive
* O=C(c1ccc(NS(=O)(=O)c2ccc3[nH]c(=O)[nH]c3c2)cc1)N1CCCCC1 | inactive
* Cc1cccc(C)c1-n1ncc(C(=O)NCCCN2CCCCC2)c1C1CCN(C(=O)OC(C)(C)C)CC1 | inactive
* COc1ccc(OCc2n[nH]c(=S)n2N)cc1 | inactive
* Cc1cc(C(C)(C)C)cc(S(=O)(=O)Nc2ccc(C(=O)O)cc2)c1C | inactive
* CC1CCN(c2ccc(C(=O)NCc3ccc4c(c3)OCO4)cc2[N+](=O)[O-])CC1 | inactive
* CCOc1cc(C2C(C(=O)OC)=C(C)NC3=C2C(=O)c2ccccc23)ccc1O (stereo not given) | inactive
* COc1cc([C@H](Cc2ccccc2)NC(C)=O)oc(=O)c1 | active
* CC(C)CC(=O)NCC(c1ccc2c(c1)OCO2)N1CCN(c2ccc(F)cc2)CC1 (stereo not given) | inactive
* O=C(Nc1ccc(F)cc1)c1cc2c(s1)CCCC2 | inactive
* COc1ccc(NC(=O)CCCc2nnc3n(CCC(C)C)c(=O)c4sccc4n23)c(OC)c1 | inactive
* Cn1ccc(=Nc2ccc(NC(=O)c3ccc(N=c4ccn(C)c5ccc([N+](=O)[O-])cc45)cc3)cc2)cc1 | active
* O=C(O)C1CCN(c2ccc([N+](=O)[O-])cc2[N+](=O)[O-])CC1 | active
* CC1CCN(c2ccc(S(=O)(=O)Nc3cc(C(=O)O)cc(C(=O)O)c3)cc2[N+](=O)[O-])CC1 | active
* COc1ccccc1-n1c(-c2cc(-c3ccco3)[nH]n2)n[nH]c1=S | active
* COCCCNc1nc2c(-c3cccc(C)c3)nnn2c2ccc(Cl)cc12 | active
* O=C(O)c1ccc(NS(=O)(=O)c2ccc3c(c2)C(=O)c2cc(S(=O)(=O)Nc4ccc(C(=O)O)cc4)ccc2-3)cc1 | active
* COC(=O)C1=C(C)NC2=C(C(=O)c3ccccc32)C1c1ccc(-c2ccc(C(=O)O)cc2)o1 (stereo not given) | active
* Oc1ccccc1-c1nc(/C=C/c2ccc(F)cc2)no1 | inactive
* CCCCN(C)S(=O)(=O)c1ccc(C(=O)Nc2sc3c(c2C(N)=O)CC(C)(C)NC3(C)C)cc1 | inactive
* Cc1ccc(O)c(NC(=O)CCS(=O)(=O)c2nc(-c3ccc4c(c3)OCO4)cc(C(F)(F)F)n2)c1 | inactive
* Cc1ccc(/C=C(\C#N)C(=O)Nc2cc(C)ccc2C)cc1 | inactive
* COc1cccc(NC(=O)c2ccc3nc(CCc4ccccc4)oc3c2)c1 | inactive
* Cc1cccc(N2CCN(c3ccc(C(N)=O)cc3[N+](=O)[O-])CC2)c1C | inactive
* COc1cc2c(=O)c(S(=O)(=O)c3ccc(C(C)C)cc3)cn(Cc3ccccc3C)c2cc1OC | inactive

###

# MEASURED_TARGET: DNA polymerase eta (Homo sapiens) (UniProt Q9Y253)
# PROTOCOL_TEXT: qHTS for Inhibitors of Polymerase Eta
# EXPERIMENTAL_SETUP: recombinant Pol eta, fluorescent DNA replication assay; series mostly up to 114 µM
In all, about 390,000 compounds went through this assay and about 4,700 (1.2%) were called active. Inconclusive results (about 4%) are left out. The call rests on the fitted dose curve; in most records, active means well fitted inhibition curve with a large enough effect; inconclusive means small, poorly fitted or top-dose-only effect, or another doubt; inactive means no such curve, though single readings can be large or run the other way. The sample holds actives, similar compounds and a random draw of the others, so the mix is not that of the screen.
Outcome codes: 1 (yes) for active, 0 (no) for inactive

• COc1ccc2cc(-c3nc(Cl)c4c5c(sc4n3)CC(C)CC5)c(=O)oc2c1 (stereo unspecified) = 0 (no)
• Cc1ccc2c(=O)c(C(=O)c3ccc(Cl)cc3)cn(CC(=O)NC3CCCCC3)c2n1 = 0 (no)
• O=C1c2cccc3cccc(c23)N1CN1CCN(c2ccccn2)CC1 = 0 (no)
• COc1ccc(S(=O)(=O)/N=C2\C=C(NS(=O)(=O)c3ccccc3)C(=O)c3ccccc32)cc1 = 1 (yes)
• COc1cccc(CNC(=O)CN2C(=O)CCc3cc(S(=O)(=O)N4CCOCC4)ccc32)c1 = 0 (no)
• OC[C@H]1O[C@@H](n2cnc3c(N[C@H]4CC5CCC4C5)ncnc32)[C@H](O)[C@@H]1O (stereo partly specified) = 0 (no)
• O=C(O)CCc1cccnc1 = 0 (no)
• O=C(CCc1cn(Cc2ccc(F)cc2)c2ccccc12)NC1CCCCC1 = 0 (no)
• C=C(C)C(=O)O[C@H]1C/C(C)=C\C(=O)/C=C(\C)[C@H](O)[C@@H]2OC(=O)C(=C)[C@@H]21 = 1 (yes)
• N=C1C(c2nc3ccccc3s2)=C(O)CN1NC(=O)c1ccc([N+](=O)[O-])cc1 = 1 (yes)
• CSc1cccc(NC(=O)CN2C(=O)CCc3cc(S(=O)(=O)N4CCCCC4)ccc32)c1 = 0 (no)
• Cc1ccc(S(=O)(=O)Nc2nc(N)n(-c3ccccc3)n2)cc1 = 0 (no)
• COc1cccc(NC(=O)CN2C(=O)c3ccccc3Sc3ncccc32)c1 = 0 (no)
• Cc1ccc(OCC(=O)OCc2cc(=O)n3nc(C4CC4)sc3n2)cc1 = 0 (no)
• Nc1ccc2c(c1)C(=Cc1cccnc1)c1ccccc1-2 = 0 (no)
• CCOc1ccc(NC(=O)c2ncoc2-c2ccco2)cc1 = 0 (no)
• O=C(CCC(=O)N1CC2CCCN2c2ccccc21)NCc1ccccc1Cl (stereo unspecified) = 0 (no)
• Nc1ccc2nc3c(=O)[nH]c(=S)[nH]c3nc2c1 = 1 (yes)
• COc1ccc(OC)c(-c2nc(C(N)=O)c3c(n2)n(-c2ccc4c(c2)OCO4)c(=O)n3C)c1 = 0 (no)
• COc1cc(NC(=O)CCn2nc(C)cc2C)cc(OC)c1OC = 0 (no)
• CCc1ccc(NC(=O)CN2C(=O)CCSc3ccc(S(=O)(=O)N4CCCC4)cc32)cc1 = 0 (no)
• COc1ccc(N2CCN(C3CCCCC3NS(=O)(=O)c3ccccc3)CC2)cc1 (stereo unspecified) = 0 (no)
• O=C(CC1Oc2ccc(Cl)cc2NC1=O)NCc1ccccc1 (stereo unspecified) = 0 (no)
• C=CC1C(OC2OC(CO)C(O)C(O)C2O)OC=C(C(=O)OC)C1CC1CC(=O)CC(CC(=O)CCc2ccc(O)cc2)O1 (stereo unspecified) = 0 (no)
• Cc1cccc(Nc2nc(C)nc(N)c2S(=O)(=O)c2ccccc2)c1 = 0 (no)
• Cc1ccc(C)c(Cn2c(=O)n(CCC(=O)NCc3ccc4c(c3)OCO4)c(=O)c3sccc32)c1 = 0 (no)
• N=C1C(c2nc3ccccc3[nH]2)=C(O)CN1NC(=O)c1c[nH]c2ccccc12 = 0 (no)
• Cc1ccc(S(=O)(=O)/N=S(\C)C(C)C)cc1 (stereo unspecified) = 0 (no)
• CCOc1ccccc1/C=c1\sc2nc(-c3ccco3)nn2c1=O = 1 (yes)
• COc1ccc2oc(=O)c(-c3cn4c(n3)sc3cc(OC)ccc34)cc2c1 = 0 (no)
• COc1cccc(-n2c(=O)c3c(C)c(C(=O)N(C)C)sc3n(Cc3cccc(C)c3)c2=O)c1 = 0 (no)
• CC1CCN(S(=O)(=O)c2ccc(S(=O)(=O)NCc3ccco3)cc2)CC1 = 0 (no)
• COc1ccc(C2(Nc3cccc(F)c3)C(=O)c3ccccc3C2=O)cc1 = 0 (no)
• Cc1ccc(S(=O)(=O)/N=C2\C=C(NS(=O)(=O)c3ccc(C)cc3)C(=O)c3ccccc32)cc1 = 1 (yes)
• Cc1oc(-c2ccccc2F)nc1CN1CCC(C(=O)NCCc2ccc(Cl)cc2)CC1 = 0 (no)
• COc1ccc(CNC(=O)c2cc3c(-c4ccccc4F)nn(C)c3s2)c(OC)c1 = 0 (no)
• Cc1cccc(N(C)C(=O)CS(=O)(=O)c2cccc3nsnc23)c1 = 0 (no)
• Cc1ccc(-c2cn3c(n2)sc2cc(C(=O)NCc4cccs4)ccc23)c(C)c1 = 0 (no)
• Oc1c(C(c2ccccc2Cl)N2CCOCC2)sc2nc(-c3ccco3)nn12 (stereo unspecified) = 0 (no)
• COCCNC(=O)Nc1ccc2nc(-c3ccco3)c(-c3ccco3)nc2c1 = 1 (yes)
• CC(/C=C/C1(O)C(C)CC(=O)CC1(C)C)OC1OC(CO)C(O)C(O)C1O (stereo unspecified) = 1 (yes)
